target under test: UniProt P23945
test summary: EC50 of cyclic AMP production in CHO FSHR cells + EC20 FSH (Assay A)
measurement setup: CHO-FSHR-LUC cells, 0.265 pM FSH (EC20), cAMP HTRF, 1 h
pEC50: −log10 of the molar value.
Decision: pEC50 >= 5 yields 1, all other cases yield 0.

| compound | group |
| --- | --- |
| CSc1ccc(C2=NN(C(=O)c3ccc4c(c3)OCO4)CC2)cc1 [Compound 205] | 0 |
| Cc1cccc(C2=NN(C(=O)c3cccc(F)c3)CC2)c1 [Compound 179] | 0 |
| O=C(c1cccc(F)c1)N1CCC(c2ccc(C(F)(F)F)cc2)=N1 [Compound 207] | 0 |
| COc1ccc(C2=NN(C(=O)C(OC)c3cccc(C(F)(F)F)c3)CC2)cc1OC (stereo not drawn) [Compound 277] | 1 |
| COc1ccc(C2=NN(C(=O)C(OC)c3ccc(C)cc3)CC2)cc1OC (stereo not drawn) [Compound 282] | 0 |
| COc1ccc(C2=NN(C(=O)Cc3cccc(F)c3)C(C)(C)C2)cc1OC [Compound 255] | 0 |
| COc1ccc(C2=NN(C(=O)c3ccc(Oc4ccccc4)cc3)C(C)(C)C2)cc1OC [Compound 230] | 1 |
| COc1ccc(C(OC)C(=O)N2CCC(c3ccc(OC)c(OC)c3)=N2)cc1 (stereo not drawn) [Compound 275] | 0 |
| COc1ccc(C2=NN(C(=O)c3cccc(C)c3)CC2)cc1OC [Compound 65] | 0 |
| COc1ccc(C2=NN(C(=O)c3ccc(C)cc3)C(C)(C)C2)cc1OC [Compound 235] | 0 |
| COc1ccc(C2=NN(C(=O)c3ccc(F)c(Cl)c3)C(C)(C)C2)cc1OC [Compound 237] | 0 |
| COc1ccc(C2=NN(C(=O)c3cccc(F)c3)CC2)cc1S(=O)(=O)NCc1ccccc1 [Compound 214] | 1 |

* * *

target under test: FSHR (Homo sapiens)
Sequence (P23945 18-695): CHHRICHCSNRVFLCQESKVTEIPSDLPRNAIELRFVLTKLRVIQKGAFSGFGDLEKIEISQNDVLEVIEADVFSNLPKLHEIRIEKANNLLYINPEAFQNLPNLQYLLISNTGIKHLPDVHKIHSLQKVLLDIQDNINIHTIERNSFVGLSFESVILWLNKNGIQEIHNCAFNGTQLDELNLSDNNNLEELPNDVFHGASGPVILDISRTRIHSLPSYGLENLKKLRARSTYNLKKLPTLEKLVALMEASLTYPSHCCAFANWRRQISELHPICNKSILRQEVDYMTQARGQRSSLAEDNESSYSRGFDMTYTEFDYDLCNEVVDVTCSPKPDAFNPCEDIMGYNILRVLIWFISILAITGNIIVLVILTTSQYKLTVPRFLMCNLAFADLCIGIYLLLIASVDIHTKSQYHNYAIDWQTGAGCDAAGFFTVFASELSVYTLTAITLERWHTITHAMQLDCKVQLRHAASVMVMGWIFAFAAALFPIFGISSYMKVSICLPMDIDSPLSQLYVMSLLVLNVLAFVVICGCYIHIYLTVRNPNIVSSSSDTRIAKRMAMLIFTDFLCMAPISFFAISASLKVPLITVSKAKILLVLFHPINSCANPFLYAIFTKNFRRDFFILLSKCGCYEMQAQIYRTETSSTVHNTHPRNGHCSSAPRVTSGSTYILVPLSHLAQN
test summary: EC50 of cyclic AMP production in CHO FSHR cells + EC20 FSH (Assay A)
measurement setup: CHO-FSHR-LUC cells, 0.265 pM FSH (EC20), cAMP HTRF, 1 h
Protocol: EC50 of Cyclic AMP Production in CHO FSHR Cells+EC20 FSH (Assay A) 2500 Cho-FSHR-LUC-1-1-43 cells were plated per well in 5 μl of phenol red free DMEM/F12+1% FBS. Cells were plated in 384 well, solid white low volume plates (Greiner 784075) by Multidrop. […] The plates were read on Envision using the cAMP HTRF—low volume 384 well protocol. The readout was the calculated fluorescence ratio (665 nm/620 nm).
pEC50: −log10 of the molar value.
# key: entry, value: pEC50
experimental endpoint: pEC50

| compound | experimental endpoint | meas value |
| --- | --- | --- |
| COc1ccc(C2=NN(C(=O)c3cccc(F)c3F)CC2)cc1OC [Compound 77] | pEC50 | 5.06 |
| COc1ccc(C2=NN(C(=O)c3cccc(C(F)(F)F)c3)CC2)cc1OC [Compound 64] | pEC50 | 4.96 |
| CSc1ccc(C2=NN(C(=O)c3cccc(F)c3)CC2)cc1 [Compound 204] | pEC50 | 5.08 |
